// values below are IC50; system is Acetylcholinesterase (Electrophorus electricus)
Sequence (O42275 whole entry): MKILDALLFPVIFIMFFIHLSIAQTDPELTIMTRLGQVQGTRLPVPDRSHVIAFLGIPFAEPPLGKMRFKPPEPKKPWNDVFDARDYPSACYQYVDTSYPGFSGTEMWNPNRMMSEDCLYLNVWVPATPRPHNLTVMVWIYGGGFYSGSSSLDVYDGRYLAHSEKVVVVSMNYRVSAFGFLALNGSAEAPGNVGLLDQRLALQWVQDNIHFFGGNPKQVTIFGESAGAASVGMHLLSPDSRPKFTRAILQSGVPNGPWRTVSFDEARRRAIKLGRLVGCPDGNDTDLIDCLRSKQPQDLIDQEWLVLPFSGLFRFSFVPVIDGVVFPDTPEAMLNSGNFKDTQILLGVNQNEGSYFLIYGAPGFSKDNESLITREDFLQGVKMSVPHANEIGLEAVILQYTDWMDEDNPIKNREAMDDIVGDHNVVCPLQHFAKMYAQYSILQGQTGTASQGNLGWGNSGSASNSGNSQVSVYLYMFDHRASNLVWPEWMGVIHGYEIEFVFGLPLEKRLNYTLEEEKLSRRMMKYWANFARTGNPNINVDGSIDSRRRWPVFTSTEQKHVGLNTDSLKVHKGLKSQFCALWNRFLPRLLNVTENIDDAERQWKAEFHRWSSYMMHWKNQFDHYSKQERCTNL
REPORTED PROPERTY: IC50

- COMPOUND STRING: "CN(C)c1ccc(C(=O)NCCCCCCCNc2c3c(nc4ccccc24)CCCC3)cc1"
  ENDPOINT VALUE: "167 nM"
- COMPOUND STRING: "CN(C)c1ccc(C(=O)NCCCCCCNc2c3c(nc4ccccc24)CCCC3)cc1"
  ENDPOINT VALUE: "0.6 nM"
- COMPOUND STRING: "CN(C)c1ccc(C(=O)NCCCCCCCCCNc2c3c(nc4ccccc24)CCCC3)cc1"
  ENDPOINT VALUE: "0.5 nM"

This collection of values is drawn from ChEMBL document CHEMBL3603732.
